Biological target: Vascular endothelial growth factor A (Homo sapiens)
Please go through the items and note down their Kd.
Give bare numbers, in nM.

- SMILES: "CC(C)CCC[C@@H](C)[C@H]1CC[C@H]2[C@@H]3CC[C@H]4C[C@@H](O[C@@H]5O[C@H](COS(=O)(=O)[O-])[C@@H](O[C@H]6O[C@H](COS(=O)(=O)[O-])[C@@H](OS(=O)(=O)[O-])[C@H](OS(=O)(=O)[O-])[C@H]6OS(=O)(=O)[O-])[C@H](OS(=O)(=O)[O-])[C@H]5OS(=O)(=O)[O-])CC[C@]4(C)[C@H]3CC[C@]12C.[Na+].[Na+].[Na+].[Na+].[Na+].[Na+].[Na+]"
  UNIT SYMBOL: "nM"
  Kd: 1200
- SMILES: "CC(C)CCC[C@@H](C)[C@H]1CC[C@H]2[C@@H]3CC[C@H]4C[C@@H](OCc5cn([C@@H]6O[C@H](COS(=O)(=O)[O-])[C@@H](O[C@@H]7O[C@H](COS(=O)(=O)[O-])[C@H](OS(=O)(=O)[O-])[C@H](OS(=O)(=O)[O-])[C@H]7OS(=O)(=O)[O-])[C@H](OS(=O)(=O)[O-])[C@H]6OS(=O)(=O)[O-])nn5)CC[C@]4(C)[C@H]3CC[C@]12C.[Na+].[Na+].[Na+].[Na+].[Na+].[Na+].[Na+]"
  UNIT SYMBOL: "nM"
  Kd: 1600

Shift focus to the following entry.
**Query** Look at this compound and give its reported Kd. CC(C)CCC[C@@H](C)[C@H]1CC[C@H]2[C@@H]3CC[C@H]4C[C@@H](O[C@H]5O[C@H](COS(=O)(=O)[O-])[C@@H](OS(=O)(=O)[O-])[C@H](OS(=O)(=O)[O-])[C@@H]5OS(=O)(=O)[O-])CC[C@]4(C)[C@H]3CC[C@]12C.[Na+].[Na+].[Na+].[Na+]
**Result** 3000
